- Procedure details: recombinant UMI read abundance after kanamycin selection (control-corrected) (log10(CPM+1)); higher = more efficient recombination; extreme values may be limits of the assay; sequences stand for … in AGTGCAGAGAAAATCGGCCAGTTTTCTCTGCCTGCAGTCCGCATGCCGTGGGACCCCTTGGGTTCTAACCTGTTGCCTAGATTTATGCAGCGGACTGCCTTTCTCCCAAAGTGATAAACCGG…AGGTTGGTTTCACT; site = the 11-nt donor
Quantity: recombinant UMI read abundance (log10)

>  <Entry sequence>
TAGCCTCCATGGACCGGTTTTCCCGGTAATCCGTATTTGGT (site TAGCCTACTAC)

>  <Numeric value>
0.0161

$$$$
>  <Entry sequence>
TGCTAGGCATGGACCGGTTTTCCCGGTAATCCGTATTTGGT (site TGCTAGGCTTC)

>  <Numeric value>
0.0129

$$$$
>  <Entry sequence>
GGCAATCCATGGACCGGTTTTCCCGGTAATCCGTATTTGAT (site GGCAATCCTTT)

>  <Numeric value>
0.00349

$$$$
>  <Entry sequence>
GCCTGAACATGGACCGGTTTTCCCGGTAATCCGTATTTGCA (site GCCTGAACTTG)

>  <Numeric value>
2.12

$$$$
>  <Entry sequence>
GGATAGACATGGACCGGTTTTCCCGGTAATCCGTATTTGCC (site GGATAGGCTGG)

>  <Numeric value>
1.98

$$$$
>  <Entry sequence>
AGATTATCATGGACCGGTTTTCCCGGTAATCCGTATTTGCT (site AGATTATCTAG)

>  <Numeric value>
2.71

$$$$
>  <Entry sequence>
AATCTCTCATGGACCGGTTTTCCCGGTAATCCGTATTTGGC (site AATCTCTCTGC)

>  <Numeric value>
2.62

$$$$
>  <Entry sequence>
AGTAAGTCATGGACCGGTTTTCCCGGTAATCCGTATTTGAA (site AGTAAGTCTTT)

>  <Numeric value>
2.1

$$$$
>  <Entry sequence>
CTAGTCACATGGACCGGTTTTCCCGGTAATCCGTATTTGGG (site CGAGTCACTCC)

>  <Numeric value>
0.00732

$$$$

----------
- Procedure details: recombinant barcode read abundance after kanamycin selection (control-corrected) (log10(CPM+1)); higher = more efficient recombination; sequences stand for … in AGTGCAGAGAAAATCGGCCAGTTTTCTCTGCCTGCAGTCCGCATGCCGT…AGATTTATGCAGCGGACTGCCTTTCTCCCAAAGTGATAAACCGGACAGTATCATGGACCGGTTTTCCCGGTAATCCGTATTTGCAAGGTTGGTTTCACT; site = the 11-nt target
Output: class label from recombinant barcode read abundance (log10). Mapping: lower range: < 0.08; middle range: ≥ 0.08 and < 0.2; upper range: ≥ 0.2

>  <Entry sequence>
GTGTGTGCTTGGGTTCTAACCTGTTGCCT (site GTGTGTCCTAG)

>  <Qualitative label>
lower range

$$$$
>  <Entry sequence>
GGTCCAACTTGGGTTCTAACCTGTTGCCT (site GGTCAAACTAG)

>  <Qualitative label>
middle range

$$$$
>  <Entry sequence>
AATGGGACTTGGGTTCTAACCTGTTGCCT (site AATGGGCCTAG)

>  <Qualitative label>
middle range

$$$$
>  <Entry sequence>
AGCACAACTTGGGTTCTAACCTGTTGCCT (site AGGACAACTAG)

>  <Qualitative label>
lower range

$$$$
>  <Entry sequence>
GACCGTCCTTGGGTTCTAACCTGTTGCCT (site GACCGTCCTAA)

>  <Qualitative label>
lower range

$$$$
>  <Entry sequence>
TAGACGACTTGGGTTCTAACCTGTTGCTT (site TAGCCGACTAA)

>  <Qualitative label>
lower range

$$$$
>  <Entry sequence>
GGCGTAGCTTGGGTTCTAACCTGTTGCCT (site GTCGTAGCTAG)

>  <Qualitative label>
upper range

$$$$
>  <Entry sequence>
AGCCTTGCTTGGGTTCTAACCTGTTGCCT (site AGCCTTGCTAG)

>  <Qualitative label>
upper range

$$$$
>  <Entry sequence>
CTTAGGACTTGGGTTCTAACCTGTTGCCA (site CTTAGGACTGG)

>  <Qualitative label>
middle range

$$$$

----------
- Procedure details: recombinant barcode read abundance after kanamycin selection (control-corrected) (log10(CPM+1)); higher = more efficient recombination; sequences stand for … in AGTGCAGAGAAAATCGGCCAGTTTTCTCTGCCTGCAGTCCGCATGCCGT…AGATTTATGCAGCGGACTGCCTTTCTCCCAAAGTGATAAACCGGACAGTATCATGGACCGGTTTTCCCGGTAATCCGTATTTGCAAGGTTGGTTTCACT; site = the 11-nt target
Quantity: recombinant barcode read abundance (log10)

>  <Entry sequence>
GGGCACTCTTGGGTTCTAACCTGTTGCTT (site GGGCACTCTAT)

>  <Numeric value>
1.54

$$$$
>  <Entry sequence>
ACGACGTCTTGGGTTCTAACCTGTTGCTT (site ACGACGTCTAA)

>  <Numeric value>
0.292

$$$$
>  <Entry sequence>
CATCGGACTTGGGTTCTAACCTGTTGCGA (site CATCGGACTTC)

>  <Numeric value>
1.35

$$$$
>  <Entry sequence>
TGGTGTGCTTGGGTTCTAACCTGTTGCCA (site TGGTGTGCTTG)

>  <Numeric value>
0.267

$$$$
>  <Entry sequence>
GGAGCTCCTTGGGTTCTAACCTGTTGCCA (site CGAGCTCCTGG)

>  <Numeric value>
0.082

$$$$
>  <Entry sequence>
TATCCGACTTGGGTTCTAACCTGTTGCCG (site TATCCGACTCG)

>  <Numeric value>
0.396

$$$$
>  <Entry sequence>
AGTTGTCCTTGGGTTCTAACCTGTTGCAT (site AGTTGTCCTAC)

>  <Numeric value>
0.0713

$$$$
>  <Entry sequence>
ACTGGTCCTTGGGTTCTAACCTGTTGCAG (site ACTACTCCTCT)

>  <Numeric value>
0.0961

$$$$
>  <Entry sequence>
AGTTCGTCTTGGGTTCTAACCTGTTGCCG (site AGTTCGTCTCG)

>  <Numeric value>
0.314

$$$$
>  <Entry sequence>
GACTGTCCTTGGGTTCTAACCTGTTGCGA (site GACCGTCCTTG)

>  <Numeric value>
0.372

$$$$

----------
- Procedure details: recombinant barcode read abundance after kanamycin selection (control-corrected) (log10(CPM+1)); higher = more efficient recombination; sequences stand for … in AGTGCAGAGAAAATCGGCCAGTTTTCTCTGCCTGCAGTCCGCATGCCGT…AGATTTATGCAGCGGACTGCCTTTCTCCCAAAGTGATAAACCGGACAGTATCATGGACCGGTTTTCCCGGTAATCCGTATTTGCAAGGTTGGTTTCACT; site = the 11-nt target
Quantity: recombinant barcode read abundance (log10)

>  <Entry sequence>
GGTTACACTTGGGTTCTAACCTGTTGCCT (site GGTTACACTAG)

>  <Result>
1.26

$$$$
>  <Entry sequence>
ACCAAGCCTTGGGTTCTAACCTGTTGCGG (site ACCAAGCCTCC)

>  <Result>
1.36

$$$$
>  <Entry sequence>
ACTTCGACTTGGGTTCTAACCTGTTGCCT (site AGTTCGACTAG)

>  <Result>
0.461

$$$$
>  <Entry sequence>
CTTGGATCTTGGGTTCTAACCTGTTGCCT (site CTTGGAGCTAG)

>  <Result>
0.0716

$$$$
>  <Entry sequence>
TGTAAGGCTTGGGTTCTAACCTGTTGCTT (site TGTAAGGCTAA)

>  <Result>
0.27

$$$$
>  <Entry sequence>
GTATGAGCTTGGGTTCTAACCTGTTGCTG (site GTATGAGCTCA)

>  <Result>
1.51

$$$$

----------
- Procedure details: recombinant barcode read abundance after kanamycin selection (control-corrected) (log10(CPM+1)); higher = more efficient recombination; sequences stand for … in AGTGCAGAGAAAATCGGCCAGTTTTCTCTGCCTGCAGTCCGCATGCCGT…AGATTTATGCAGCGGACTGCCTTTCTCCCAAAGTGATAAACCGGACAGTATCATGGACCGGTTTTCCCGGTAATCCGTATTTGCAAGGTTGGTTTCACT; site = the 11-nt target
Output: class label from recombinant barcode read abundance (log10). Mapping: low range (below 0.1), mid range (0.1 to below 0.5), high range (0.5 or more)

>  <Entry sequence>
CAGCATACTTGGGTTCTAACCTGTTGCCT (site CGGCATACTAG)

>  <Qualitative label>
mid range

$$$$
>  <Entry sequence>
GAGTGGCCTTGGGTTCTAACCTGTTGCCT (site GAGTGGCCTAA)

>  <Qualitative label>
mid range

$$$$
>  <Entry sequence>
TAATGACCTTGGGTTCTAACCTGTTGCTT (site TAATGACCTAT)

>  <Qualitative label>
mid range

$$$$
>  <Entry sequence>
CGTGGTCCTTGGGTTCTAACCTGTTGCCT (site CGTGGTCCTAA)

>  <Qualitative label>
low range

$$$$
>  <Entry sequence>
GAGGATCCTTGGGTTCTAACCTGTTGCCT (site GAGGATCCTAG)

>  <Qualitative label>
high range

$$$$
>  <Entry sequence>
CACGATGCTTGGGTTCTAACCTGTTGCCT (site CACGATGCTAG)

>  <Qualitative label>
high range

$$$$
>  <Entry sequence>
GGCTTACCTTGGGTTCTAACCTGTTGCCT (site TGCTTACCTAG)

>  <Qualitative label>
mid range

$$$$
>  <Entry sequence>
CTCATTCCTTGGGTTCTAACCTGTTGCGT (site CTCATTCCTAT)

>  <Qualitative label>
mid range

$$$$
>  <Entry sequence>
TGTGACTCTTGGGTTCTAACCTGTTGCCT (site TGCGACTCTAG)

>  <Qualitative label>
low range

$$$$
>  <Entry sequence>
ACATGTCCTTGGGTTCTAACCTGTTGCAT (site ACATGTCCTAG)

>  <Qualitative label>
mid range

$$$$
>  <Entry sequence>
CAGTGGCCTTGGGTTCTAACCTGTTGCCT (site CAGCGGCCTAG)

>  <Qualitative label>
mid range

$$$$
>  <Entry sequence>
GCTCGTCCTTGGGTTCTAACCTGTTGCAT (site GCTCGTCCTAT)

>  <Qualitative label>
high range

$$$$
>  <Entry sequence>
CCGAATCCTTGGGTTCTAACCTGTTGCCT (site CCGAATCCTAG)

>  <Qualitative label>
mid range

$$$$
>  <Entry sequence>
GCGAATCCTTGGGTTCTAACCTGTTGCCT (site GCGAATCCTAG)

>  <Qualitative label>
high range

$$$$
>  <Entry sequence>
TACTGAACTTGGGTTCTAACCTGTTGCCT (site TACTGAACTAG)

>  <Qualitative label>
mid range

$$$$
>  <Entry sequence>
TGTTGAGCTTGGGTTCTAACCTGTTGCCG (site TGTTGAGCTCG)

>  <Qualitative label>
high range

$$$$
>  <Entry sequence>
TTGGATCCTTGGGTTCTAACCTGTTGCCT (site TTGGATCCTAG)

>  <Qualitative label>
high range

$$$$
>  <Entry sequence>
TCCTGAGCTTGGGTTCTAACCTGTTGCTG (site TCCTTAGCTCG)

>  <Qualitative label>
low range

$$$$
>  <Entry sequence>
CACGAGGCTTGGGTTCTAACCTGTTGCCT (site CACGAGTCTAG)

>  <Qualitative label>
mid range

$$$$
>  <Entry sequence>
CAACGGCCTTGGGTTCTAACCTGTTGCCT (site CAACGGCCTAG)

>  <Qualitative label>
high range

$$$$
>  <Entry sequence>
AGTATGACTTGGGTTCTAACCTGTTGCCT (site AGTATGACTAG)

>  <Qualitative label>
high range

$$$$
>  <Entry sequence>
CAGTGGCCTTGGGTTCTAACCTGTTGCCT (site CAGAGGCCTAG)

>  <Qualitative label>
low range

$$$$
>  <Entry sequence>
CACACTACTTGGGTTCTAACCTGTTGCTT (site CACACTACTAA)

>  <Qualitative label>
low range

$$$$
>  <Entry sequence>
TCGTGTTCTTGGGTTCTAACCTGTTGCTA (site CCTTGTTCTTA)

>  <Qualitative label>
low range

$$$$
>  <Entry sequence>
GGCAGATCTTGGGTTCTAACCTGTTGCTT (site GGCAGTTCTAA)

>  <Qualitative label>
high range

$$$$
>  <Entry sequence>
TGGTATACTTGGGTTCTAACCTGTTGCCT (site TGGTATACTAG)

>  <Qualitative label>
mid range

$$$$
>  <Entry sequence>
GTGAGAGCTTGGGTTCTAACCTGTTGCGG (site GTGAGAGCTCC)

>  <Qualitative label>
high range

$$$$
>  <Entry sequence>
TGCTGTGCTTGGGTTCTAACCTGTTGCCT (site TGCTGTGCTAG)

>  <Qualitative label>
mid range

$$$$
>  <Entry sequence>
ACGATATCTTGGGTTCTAACCTGTTGCCT (site ATGATATCTAG)

>  <Qualitative label>
low range

$$$$
>  <Entry sequence>
GCTAGTCCTTGGGTTCTAACCTGTTGCTG (site GCTAGTCCTAC)

>  <Qualitative label>
high range

$$$$
>  <Entry sequence>
AGAAGTCCTTGGGTTCTAACCTGTTGCCG (site AGAAGTCCTCT)

>  <Qualitative label>
mid range

$$$$
>  <Entry sequence>
CGCTGGTCTTGGGTTCTAACCTGTTGCCT (site CGCTTGTCTAG)

>  <Qualitative label>
mid range

$$$$
>  <Entry sequence>
ATATGTACTTGGGTTCTAACCTGTTGCCG (site ATATGTACTCG)

>  <Qualitative label>
high range

$$$$
>  <Entry sequence>
GGACTAACTTGGGTTCTAACCTGTTGCCT (site GGACTAACTAG)

>  <Qualitative label>
high range

$$$$
>  <Entry sequence>
GCGGGGTCTTGGGTTCTAACCTGTTGCTT (site GCCGGGTCTAA)

>  <Qualitative label>
mid range

$$$$
>  <Entry sequence>
CTCTACCCTTGGGTTCTAACCTGTTGCGT (site CTCTAGCCTAC)

>  <Qualitative label>
low range

$$$$
>  <Entry sequence>
ACGCGAGCTTGGGTTCTAACCTGTTGCTG (site ACGCGAGCTCA)

>  <Qualitative label>
low range

$$$$
